// reported IC50 for each item listed
study target: benzodiazepine recognition sites
experimental protocol: benzodiazepine (Bz) binding, rat cerebral cortex membrane preparation
condition details: rat cortex membranes, 2 nM radioactive benzodiazepine, pH 6.9, 20 minutes at 0-4° C.

compound	study target	unit tag	qualifier symbol	IC50
Br.CN1C(=O)CN=C(c2ccccc2)c2cccn21 [hydrobromide]	benzodiazepine recognition sites	nM	=	340
O=C1CN=C(c2ccccc2)c2cccn2N1	benzodiazepine recognition sites	nM	=	6730
CN1C(=O)CN=C(c2ccccc2F)c2cccn21.Cl [hydrochloride]	benzodiazepine recognition sites	nM	=	62.1
O=C1CN=C(c2ccccc2Cl)c2cccn2N1	benzodiazepine recognition sites	nM	=	204
O=C1CN=C(c2ccccc2F)c2cccn2N1	benzodiazepine recognition sites	nM	=	586
Br.CN(C(=O)CN)n1cccc1C(=O)c1ccccc1F [hydrobromide]	benzodiazepine recognition sites	nM	<	10000
CN1C(=O)CN=C(c2ccccc2F)c2ccc(Cl)n21.Cl [hydrochloride]	benzodiazepine recognition sites	nM	=	699
CN1C(=O)CN=C(c2ccccc2Cl)c2cccn21	benzodiazepine recognition sites	nM	=	22.7
